These measurements were taken from patent US20190315854A1.

Molecular target: T1, sIL-6R (soluble IL-6 receptor; SBH Sciences) (human, UniProt P08887 20-365)
T1 construct: also called human IL-6R
T1 sequence: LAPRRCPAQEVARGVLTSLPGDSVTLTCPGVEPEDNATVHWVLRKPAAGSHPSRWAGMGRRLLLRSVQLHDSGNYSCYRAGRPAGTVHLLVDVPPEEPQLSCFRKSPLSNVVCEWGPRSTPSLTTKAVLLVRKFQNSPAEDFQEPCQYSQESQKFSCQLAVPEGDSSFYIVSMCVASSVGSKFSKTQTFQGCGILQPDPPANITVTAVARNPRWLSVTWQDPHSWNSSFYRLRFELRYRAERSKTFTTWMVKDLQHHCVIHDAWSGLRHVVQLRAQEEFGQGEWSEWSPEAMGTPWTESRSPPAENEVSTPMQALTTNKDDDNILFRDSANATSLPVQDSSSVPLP
Test: SPR (BIAcore 3000), antibody on chip, sIL-6R analyte, pH 7.4
PROPERTY_NAME: koff (s⁻¹)
Give just the number in s⁻¹; leave the unit off.

* 205# (antibody, human IgG1, kappa, V domains shown) VH: QVQLQESGPGLVRPSQTLSLTCTVSGYSITSDHAWSWVRQPPGRGLEWIGFISYSGMTTYNPSLKSRVTMLRDTSKNQFSLRLSSVTAADTAVYYCARCLARTTAMDYWGQGSLVTVSS VL: DIQMTQSPSSLSASVGDRVTITCRASQDISSYLNWYQQKPGKAPKLLIYYTSRLHSGVPSRFSGSGSGTDFTFTISSLQPEDIATYYCGQGNRLPYTFGQGTKVEIKR | 2.14e-06
* 206# (antibody, human IgG1, kappa, V domains shown, also called Sample # 206) VH: QVQLQESGPGLVRPSQTLSLTCTVSGYSITSDHAWSWVRQPPGRGLEWIGFISYSGMTTYNPSLKSRVTMLRDTSKNQFSLRLSSVTAADTAVYYCARSLARITAMDYWGQGSLVTVSS VL: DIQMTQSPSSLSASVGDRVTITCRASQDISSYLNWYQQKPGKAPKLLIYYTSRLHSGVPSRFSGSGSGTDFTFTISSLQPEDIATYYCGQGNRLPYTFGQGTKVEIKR | 1.41e-07
* 202# (antibody, human IgG1, kappa, V domains shown) VH: QVQLQESGPGLVRPSQTLSLTCTVSGYSITSDHAWSWVRQPPGRGLEWIGYISYSGITTYNPSLKSRVTMLRDTSKNQFSLRLSSVTAADTAVYYCARVLARITAMDYWGQGSLVTVSS VL: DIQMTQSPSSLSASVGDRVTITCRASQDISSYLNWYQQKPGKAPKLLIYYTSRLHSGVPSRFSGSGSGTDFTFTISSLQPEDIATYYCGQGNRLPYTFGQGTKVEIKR | 2.46e-06

Now for another entry.
The binder identified as Tocilizumab (antibody, human IgG1, kappa, V domains shown, also called 25; 25(control)) VH: QVQLQESGPGLVRPSQTLSLTCTVSGYSITSDHAWSWVRQPPGRGLEWIGYISYSGITTYNPSLKSRVTMLRDTSKNQFSLRLSSVTAADTAVYYCARSLARTTAMDYWGQGSLVTVSS VL: DIQMTQSPSSLSASVGDRVTITCRASQDISSYLNWYQQKPGKAPKLLIYYTSRLHSGVPSRFSGSGSGTDFTFTISSLQPEDIATYYCQQGNTLPYTFGQGTKVEIKR registered its koff at 0.000349
